- Test system: Candida albicans
- procedure-details: Antifungal activity against Candida albicans NICM 300 after 3 to days by serial plate dilution method
- Type: functional
quantity-kind: diameter of the inhibition zone (DIZ) (mm)
Just the number please, in mm, no unit attached.

Some solved cases for reference:
- input-smiles: "CSc1ccc(Cc2nn3c(Cc4ccc(SC)cc4)nnc3s2)cc1"
  diameter of the inhibition zone (DIZ) / mm: 19
- input-smiles: "CSc1ccc(Cc2nnc3sc(-c4ccc(-c5cc(Cl)ccc5Cl)o4)nn23)cc1"
  diameter of the inhibition zone (DIZ) / mm: 20
- input-smiles: "CSc1ccc(Cc2nnc3sc(-c4ccc(-c5ccccc5C(F)(F)F)o4)nn23)cc1"
  diameter of the inhibition zone (DIZ) / mm: 15

Which diameter of the inhibition zone (DIZ) value belongs to CSc1ccc(Cc2nnc3sc(-c4ccc(O)cc4)nn23)cc1 ?
20

Which diameter of the inhibition zone (DIZ) value belongs to CSc1ccc(Cc2nnc3sc(-c4ccc(Br)cc4)nn23)cc1 ?
13

Which diameter of the inhibition zone (DIZ) value belongs to CSc1ccc(Cc2nnc3sc(-c4ccc(-c5ccc([N+](=O)[O-])cc5)o4)nn23)cc1 ?
17

Which diameter of the inhibition zone (DIZ) value belongs to CSc1ccc(Cc2nnc3sc(-c4ccc(-c5ccc(Cl)cc5)o4)nn23)cc1 ?
12

Which diameter of the inhibition zone (DIZ) value belongs to CSc1ccc(Cc2nnc3sc(-c4ccc(Cl)c(Cl)c4Cl)nn23)cc1 ?
10

Which diameter of the inhibition zone (DIZ) value belongs to COc1ccc(-c2ccc(-c3nn4c(Cc5ccc(SC)cc5)nnc4s3)o2)cc1 ?
10

Which diameter of the inhibition zone (DIZ) value belongs to Cc1cc(C2CCCCC2)n(O)c(=O)c1.NCCO ?
20

###

- Tested on: Pseudomonas aeruginosa
- procedure-details: Antibacterial activity against Pseudomonas aeruginosa ATTC 27853 after 24 hrs by the disk diffusion method
- Assay type: functional
- experimental-setup: Pseudomonas aeruginosa, ATTC 27853, 24 h
quantity-kind: MIC

Some solved cases for reference:
- input-smiles: "CSc1ccc(Cc2nnc3sc(-c4ccc(-c5ccc(Cl)cc5[N+](=O)[O-])o4)nn23)cc1"
  target-or-system: "Pseudomonas aeruginosa"
  MIC: "6 mg/L"
- input-smiles: "CSc1ccc(Cc2nn3c(Cc4ccc(SC)cc4)nnc3s2)cc1"
  target-or-system: "Pseudomonas aeruginosa"
  MIC: "6 mg/L"
- input-smiles: "CSc1ccc(Cc2nnc3sc(-c4ccc(-c5ccc(Br)cc5)o4)nn23)cc1"
  target-or-system: "Pseudomonas aeruginosa"
  MIC: "25 mg/L"
- input-smiles: "CSc1ccc(Cc2nnc3sc(-c4ccc(Cl)c(Cl)c4Cl)nn23)cc1"
  target-or-system: "Pseudomonas aeruginosa"
  MIC: "12.5 mg/L"

Consider now this further compound.
Which MIC value belongs to CSc1ccc(Cc2nnc3sc(-c4ccc(-c5cc(Cl)ccc5Cl)o4)nn23)cc1 ?
6 mg/L

###

- System: Pseudomonas aeruginosa
- procedure-details: Antibacterial activity against Pseudomonas aeruginosa ATTC 27853 after 24 hrs by the disk diffusion method
- Type: functional
Recorded measurements of inhibition zone (IZ), one per entry
Just the number please, in mm, no unit attached.

Some solved cases for reference:
- input-smiles: "CSc1ccc(Cc2nnc3sc(-c4ccc(O)cc4)nn23)cc1"
  unit-abbrev: "mm"
  inhibition zone (IZ): 12
- input-smiles: "CSc1ccc(Cc2nnc3sc(-c4ccc(-c5ccc(Br)cc5)o4)nn23)cc1"
  unit-abbrev: "mm"
  inhibition zone (IZ): 11
- input-smiles: "CSc1ccc(Cc2nnc3sc(-c4ccc([N+](=O)[O-])cc4)nn23)cc1"
  unit-abbrev: "mm"
  inhibition zone (IZ): 18
- input-smiles: "CSc1ccc(Cc2nnc3sc(-c4ccc([N+](=O)[O-])cc4Cl)nn23)cc1"
  unit-abbrev: "mm"
  inhibition zone (IZ): 17

Which inhibition zone (IZ) value belongs to COc1ccc(-c2ccc(-c3nn4c(Cc5ccc(SC)cc5)nnc4s3)o2)c([N+](=O)[O-])c1 ?
12
